The measured values listed here are drawn from paper PMC6764946.

# system: hsRAD51-II3A (Homo sapiens, UniProt Q06609 1-339, R130A;R303A;K313A)
# Sequence (Q06609 whole entry R130A/R303A/K313A): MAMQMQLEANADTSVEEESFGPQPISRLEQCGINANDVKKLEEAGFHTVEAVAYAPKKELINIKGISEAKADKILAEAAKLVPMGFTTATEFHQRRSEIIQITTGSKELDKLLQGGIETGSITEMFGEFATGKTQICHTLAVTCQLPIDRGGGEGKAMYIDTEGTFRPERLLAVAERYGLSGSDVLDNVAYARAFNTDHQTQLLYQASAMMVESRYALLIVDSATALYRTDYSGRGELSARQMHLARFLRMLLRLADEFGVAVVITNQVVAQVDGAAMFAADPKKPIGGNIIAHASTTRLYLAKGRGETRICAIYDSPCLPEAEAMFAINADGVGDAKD
# assay.details: fluorescence polarization; 1 mM ATP, 1 mM MgCl2, 50 uM CaCl2; apparent Kd; modest binding defect; 25 mM Tris-HCl pH 7.8, 1 mM MgCl2, 1 mM ATP, 1 mM DTT, 50 mM NaCl (printed NaCl2), 50 uM CaCl2, 100 ug/ml BSA, 37 C, 30 min; 2.4 nM oligo, RAD51 10-1000 nM
# condition: protein: recombinant; tags: C-terminal His6; label: 5' Alexa Fluor 488 (Methods; legend says fluorescein); single strand
pKd: −log10 of the molar value.

# binder, pKd
data = [
    ("84-mer ssDNA (ssDNA) DNA: GGTAGCGGTTGGGTGAGTGGTGGGGAGGGTCGGGAGGTGGCGTAGAAACATGATAGGAATGTGAATGAATGAAGTACAAGTAAA", 6.88),
]
